Assay: NFAT Signaling Pathway (AID 444);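 also: carbachol stimulus at about its EC50 of 1 µM final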
Conditions: Jurkat NFAT-bla M1, carbachol, beta-lactamase ratio, 5 h; at 7.69 µM (top of the series) unless noted
Results filed as inconclusive are left out. Calls of active or inactive are those of the source. Calls follow the shape of the dose curve; as a rule, active = well fitted curve in either direction with a large enough effect (not every such curve was filed as active); inconclusive = small, poorly fitted or top-dose-only effect, or another doubt; inactive = flat fitted curve, though single readings scatter.
Lab note: assign the record to one of yes for active, no for inactive

The following molecules have reported results that may help.
>>> category_label("COc1ccccc1CCn1c(=O)c(-c2cccc(Cl)c2)nc2cncnc21")
"no"
>>> category_label("Clc1ccccc1-c1nccc(NCCN2CCOCC2)n1")
"no"
>>> category_label("COc1ccc(-n2c(=O)c(C)nc3cnc(N(C)C)nc32)cc1")
"no"
>>> category_label("CNc1ncnc2ccc(-c3ccccc3C#N)cc12")
"no"
>>> category_label("Cn1cc(-c2nc3cnc(N4CCNCC4)nc3n(Cc3ccc(F)cc3)c2=O)c2ccccc21")
"yes"
>>> category_label("COc1ccccc1CNc1ncncc1-c1ccccc1OC")
"no"
>>> category_label("COc1ccc(NC(=O)N2CC3(CCN(C(=O)c4cnccn4)CC3)C2)cc1")
"no"
>>> category_label("COc1ccc(-c2nc3cnc(OC)nc3n(C[C@H]3CCCO3)c2=O)cc1")
"no"
>>> category_label("COc1ccc(CNc2ncncc2-c2cccc(C#N)c2)c(OC)c1")
"no"
>>> category_label("COc1ccc(NC(=O)N2CC3(CCN(C(=O)c4csnn4)CC3)C2)cc1")
"no"

With those in mind, consider the next molecule.
What call does the record list for `Cn1c(=O)c(CCc2ccccc2)nc2cnc(Oc3ccccc3)nc21` ?
no
